system: Plasmodium falciparum; assay: Antiplasmodial activity against Plasmodium falciparum NF54 erythrocytic stages assessed as inhibition of parasite growth after 48 hrs by liquid scintillation counting method; assay type: functional, organism-based; conditions: NF54, 48 h
pIC50: −log10 of the molar value.

mol.smiles	measurement.target	pIC50
COc1ccc2c3c1C(=O)C[C@]31c3cc(-c4c(O)cc(OC)c5c4C[C@@H](C)N[C@@H]5C)c4cc(C)cc(OC)c4c3O[C@]1(C)Oc1cc(OC)c3c(c1-2)C[C@@H](C)N(C)[C@@H]3C	Plasmodium falciparum	7.15
COc1ccc2c3c1C(=O)C[C@]1(C)Oc4c(cc(-c5c(O)cc(OC)c6c5C[C@H](C)N(C)[C@@H]6C)c5cc(C)cc(OC)c45)[C@]31Oc1cc(OC)c3c(c1-2)C[C@@H](C)N[C@H]3C	Plasmodium falciparum	6.82
COc1ccc2c3c1C(=O)C[C@]1(C)Oc4c(cc(-c5c(O)cc(OC)c6c5C[C@H](C)N(C)[C@@H]6C)c5cc(C)cc(OC)c45)[C@]31Oc1cc(OC)c3c(c1-2)C[C@@H](C)N[C@@H]3C	Plasmodium falciparum	7.23

---

experiment: Selectivity index, ratio of IC50 for cytotoxicity against rat L6 cells to IC50 for antiplasmodial activity against Plasmodium falciparum NF54; format: toxicity, cell-based; conditions: read-out: Ratio IC50

mol.smiles	selectivity ratio
COc1ccc2c3c1C(=O)C[C@]1(C)Oc4c(cc(-c5c(O)cc(OC)c6c5C[C@H](C)N(C)[C@@H]6C)c5cc(C)cc(OC)c45)[C@]31Oc1cc(OC)c3c(c1-2)C[C@@H](C)N[C@H]3C	127
COc1ccc2c3c1C(=O)C[C@]31c3cc(-c4c(O)cc(OC)c5c4C[C@@H](C)N[C@@H]5C)c4cc(C)cc(OC)c4c3O[C@]1(C)Oc1cc(OC)c3c(c1-2)C[C@@H](C)N(C)[C@@H]3C	272
COc1ccc2c3c1C(=O)C[C@]1(C)Oc4c(cc(-c5c(O)cc(OC)c6c5C[C@H](C)N(C)[C@@H]6C)c5cc(C)cc(OC)c45)[C@]31Oc1cc(OC)c3c(c1-2)C[C@@H](C)N[C@@H]3C	282

---

test system: Trypanosoma cruzi; assay: Antitrypanosomal activity against amastigote form of Trypanosoma cruzi Tulahuen C4 expressing LacZ infected in rat L6 cells assessed as inhibition of parasite growth incubated for 96 hrs by CPRG/Nonidet reagent based […] analysis; format: functional, organism-based; conditions: Tulahuen C4, L6, 96 h
pIC50: −log10 of the molar value.

mol.smiles	pIC50
COc1ccc2c3c1C(=O)C[C@]1(C)Oc4c(cc(-c5c(O)cc(OC)c6c5C[C@H](C)N(C)[C@@H]6C)c5cc(C)cc(OC)c45)[C@]31Oc1cc(OC)c3c(c1-2)C[C@@H](C)N[C@H]3C	4.45
COc1ccc2c3c1C(=O)C[C@]1(C)Oc4c(cc(-c5c(O)cc(OC)c6c5C[C@H](C)N(C)[C@@H]6C)c5cc(C)cc(OC)c45)[C@]31Oc1cc(OC)c3c(c1-2)C[C@@H](C)N[C@@H]3C	4.63
COc1ccc2c3c1C(=O)C[C@]31c3cc(-c4c(O)cc(OC)c5c4C[C@@H](C)N[C@@H]5C)c4cc(C)cc(OC)c4c3O[C@]1(C)Oc1cc(OC)c3c(c1-2)C[C@@H](C)N(C)[C@@H]3C	4.76
O=C(Cn1ccnc1[N+](=O)[O-])NCc1ccccc1	5.56
